Experiment: Fraction unbound in Wistar Hannover rat brain at 1 mg/kg, sc measured at 0.5 to 4 hrs post dose by LC-MS/MS analysis
Assay type: ADME, organism-based
reported-property: fraction unbound
Write the value as a bare number.

Reported fraction unbound of `COc1ccc2c(N[C@@H](C)Cc3cc(C)[nH]n3)ncnc2c1OC` : 0.2

----------
Biological target: cGMP-dependent 3',5'-cyclic phosphodiesterase (Homo sapiens)
Sequence (O00408 whole entry): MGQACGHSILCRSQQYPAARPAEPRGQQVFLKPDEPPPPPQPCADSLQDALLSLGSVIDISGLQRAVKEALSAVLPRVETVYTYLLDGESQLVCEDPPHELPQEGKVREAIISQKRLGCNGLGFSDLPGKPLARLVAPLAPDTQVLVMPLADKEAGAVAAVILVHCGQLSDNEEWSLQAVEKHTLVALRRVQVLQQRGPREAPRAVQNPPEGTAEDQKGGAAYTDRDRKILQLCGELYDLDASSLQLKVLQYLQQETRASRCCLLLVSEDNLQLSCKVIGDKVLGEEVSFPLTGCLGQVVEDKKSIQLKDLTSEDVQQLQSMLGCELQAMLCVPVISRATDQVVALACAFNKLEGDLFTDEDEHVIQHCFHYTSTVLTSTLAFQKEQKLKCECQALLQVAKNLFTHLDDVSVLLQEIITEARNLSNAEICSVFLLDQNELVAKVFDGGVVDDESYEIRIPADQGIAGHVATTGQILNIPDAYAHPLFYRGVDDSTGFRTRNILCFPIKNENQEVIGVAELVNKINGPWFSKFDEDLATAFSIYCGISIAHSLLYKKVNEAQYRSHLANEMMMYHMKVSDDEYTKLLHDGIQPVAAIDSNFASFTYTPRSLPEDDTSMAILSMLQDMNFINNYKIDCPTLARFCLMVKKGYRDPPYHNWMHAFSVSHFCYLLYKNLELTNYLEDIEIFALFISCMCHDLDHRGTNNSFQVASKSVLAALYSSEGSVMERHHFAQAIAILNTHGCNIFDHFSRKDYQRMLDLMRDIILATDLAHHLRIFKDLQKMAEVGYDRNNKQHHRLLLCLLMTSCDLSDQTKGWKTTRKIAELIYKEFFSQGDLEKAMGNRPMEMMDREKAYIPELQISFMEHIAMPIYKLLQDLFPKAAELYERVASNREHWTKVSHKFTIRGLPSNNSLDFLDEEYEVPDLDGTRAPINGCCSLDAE
Experiment: Inhibition of full length recombinant human PDE2A1 using 3',5'-[3H]cGMP as substrate after 30 mins by scintillation proximity assay
reported-property: pIC50
The quantity pIC50 is defined as the negative base-10 logarithm of the molar concentration.

pIC50 reported for this molecule `COc1ccc2c(N[C@@H](C)Cc3cc(C)[nH]n3)ncnc2c1OC` : 4.32
